- protocol_details: PubChem AID 504770
- test_settings: E. coli YBA685 rctB-dependent plasmid, OD600 growth, 3 h
Screen size: about 130,000 compounds; about 350 (0.27%) were called active. No stated cut-off is given here; in the data, active means z-score below about -2 (passing the limit was not always enough); inactive means the rest. Only a selection was taken, and actives are over-represented in it overall.
Please state which outcome applies, choosing from T = active, F = inactive

# example entries with known answers
- O=C(Nc1ccc(F)cc1)n1ncc2cc(Cl)ccc21: F
- O=C(CSC1=NCCS1)Nc1cc(C(F)(F)F)ccc1Cl: F
- COc1ccc(CN2CN(C(C)C)CSC2=S)cc1: F
- CC(NC(=O)CC1=NS(=O)(=O)c2ccccc2N1)c1ccccc1 (configuration not stated): F
- Cc1cccc(-n2nc(C)c3c(C)cc(=O)oc32)c1: T
- CCCc1cc(=O)oc2c1c(C)nn2C: F
- CCCCn1c2ccccc2c2nc3ccccc3nc21: F
- S=C1SCN(CCN2CCOCC2)CN1Cc1ccccc1: T
- C(=C\c1ccccc1)/CNCCCN1CCOCC1: F
- CCN1CCN(C(=O)c2ccc(/C=C3/Sc4ccccc4N(Cc4ccccc4C)C3=O)cc2)CC1: F

## Input Please state the recorded outcome for this compound: COc1ccc(CNC(=O)COc2ncnc3ccccc23)cc1
## Output F

## Input For COc1ccc(NC(=O)c2cc(F)cc3c2OCOC3)cc1 , which call appears in the assay record?
## Output F

###

- protocol_details: PubChem AID 504770
- test_settings: E. coli YBA685 rctB-dependent plasmid, OD600 growth, 3 h; hits give low values
Screen size: about 130,000 compounds; about 350 (0.27%) were called active. Many of the other results were omitted from the sample, so actives are more common in it than they were.
measure: z-score
Keep it simple and answer with nothing but the number.

- CC(C)(C)c1ccc(CNCc2ccco2)cc1: 0.35
- O=C(Nc1ccccc1)C1CCN(C(=O)c2cccs2)CC1: 0.15
- CCCOc1ccc(NC(=O)CC2SC(N)=NC2=O)cc1 (configuration not stated): -1.1

Sure, the documented z-score for Cc1cccc(CC2(Cc3cccc(C)c3)C(=O)OC(C)(C)OC2=O)c1 is 0.1

Item: COC(=O)c1ccc(CNC(=O)C(C)Sc2ccccc2)cc1 (configuration not stated) | z-score: -0.15

Data point: Cc1c(Sc2nc3ccccc3s2)c(=O)[nH]c2cc3c(cc12)OCO3 ; z-score = 1

The measured z-score associated with O=S1(=O)CC(S(=O)(=O)c2ccccc2)C(S(=O)(=O)c2ccccc2)C1 (configuration not stated) reads 1.15

# z-score (compound: CCOC(=O)/C(=C(/C)N1CCCC1)P(=S)(N1CCOCC1)N1CCOCC1 ) is -1.8

###

- protocol_details: PubChem AID 504770
- test_settings: E. coli YBA685 rctB-dependent plasmid, OD600 growth, 3 h; hits give low values
Screen size: about 130,000 compounds; about 350 (0.27%) were called active. This excerpt belongs to a sample that is enriched for actives.
One threshold, -0.3, splits the recorded z-score values: lower ones are 1, equal or higher ones are -1.

Record excerpt, results attached:
* Cc1cc(C(=O)OCC(=O)N2C(C)CCCC2C)c2ccccc2n1 (centres undefined) | -1
* CCOC(=O)c1sc(-c2ccccc2)nc1CSc1nccn1C | -1
* Cc1ccc2c(c1)c1c(n2CC(O)CN2CCCCC2)C(=O)CCC1 (centres undefined) | 1
* COc1cc(/C=C2/C(=O)Nc3cc(Cl)ccc32)cc(OC)c1O | -1
* Cc1ccccc1C(=O)N(CC#N)CC#N | 1

## Input # strict comparison: is reported z-score < -0.3? input = CCn1c(SCC(=O)Nc2ccc3c(c2)OCCCO3)nc2cc(S(N)(=O)=O)ccc21
## Output -1

## Input Below -0.3 on z-score? Entry CCOc1ncccc1C(=O)OCC(=O)N1C(C)CCCC1C (centres undefined)
## Output 1

## Input Lab note: z-score threshold -0.3. Does this molecule come in strictly under it? CC1CCCCC1NC(=O)COC(=O)c1nc(Cl)ccc1Cl (centres undefined)
## Output 1

## Input Lab log: compare recorded z-score with -0.3; is it strictly lower for COC(F)(C(=O)N1CCOCC1)C(F)(F)F (centres undefined) ?
## Output 1

## Input is_below(z-score, -0.3) for CC1(C)COC(Nc2ccc(Cl)c(Cl)c2)=N1 ?
## Output 1

## Input Please state whether z-score is below -0.3 for Cc1ccccc1Oc1ccc(S(=O)(=O)N2CC(C)OC(C)C2)cc1 (centres undefined)
## Output -1
